IC50 values by entry
- target: hPDE9A (Homo sapiens)
- Sequence (O76083 whole entry): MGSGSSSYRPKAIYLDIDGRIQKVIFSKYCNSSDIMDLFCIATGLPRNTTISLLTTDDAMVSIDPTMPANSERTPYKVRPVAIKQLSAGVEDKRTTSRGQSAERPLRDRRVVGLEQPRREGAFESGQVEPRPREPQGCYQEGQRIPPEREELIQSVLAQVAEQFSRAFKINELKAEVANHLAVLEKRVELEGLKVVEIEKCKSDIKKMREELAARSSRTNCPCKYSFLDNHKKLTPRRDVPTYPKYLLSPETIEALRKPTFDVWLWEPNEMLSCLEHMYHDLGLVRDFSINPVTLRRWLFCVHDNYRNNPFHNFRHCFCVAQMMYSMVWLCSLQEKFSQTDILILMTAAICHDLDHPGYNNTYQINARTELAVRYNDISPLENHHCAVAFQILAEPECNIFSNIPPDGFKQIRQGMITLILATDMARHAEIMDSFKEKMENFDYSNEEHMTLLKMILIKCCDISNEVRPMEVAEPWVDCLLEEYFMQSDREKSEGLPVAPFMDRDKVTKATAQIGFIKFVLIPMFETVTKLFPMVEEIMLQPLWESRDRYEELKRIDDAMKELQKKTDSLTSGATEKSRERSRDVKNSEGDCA
- protocol: PDE selectivity assay, hPDE9A
- Assay type: biochemical
- settings: PDE Target hPDE9A

CN1C(=O)c2c(nn(Cc3ccc(-c4cccc(F)n4)cc3)c2Nc2ccc(O)cc2)N2C1=N[C@@H]1CCC[C@@H]12 [Compound 1]
> 100000 nM

Find the measured IC50: item CN1C(=O)c2c(nn(Cc3ccc(-c4cccc(F)n4)cc3)c2Nc2ccc(O)cc2)N2C1=N[C@]1(O)CCC[C@H]21 [Compound 3] , target or system hPDE9A (Homo sapiens). > 100000 nM

Same question, CN1C(=O)c2c(nn(Cc3ccc(-c4cccc(F)n4)cc3)c2Nc2ccccc2)N2C1=N[C@]1(O)CCC[C@H]21 [Compound 2] this time > 10000 nM

---

IC50 values by entry
- target: PDE1A (Homo sapiens)
- Construct: recombinant full length human PDEl A and PDE1B; made in house; host or cells: HEK or SF9 cells
- protocol: IMAP phosphodiesterase assay, PDE1A
- Format: biochemical
- settings: PDE Target PDE1A

Requested field: IC50. Item: `CN1C(=O)c2c(nn(Cc3ccc(-c4cccc(F)n4)cc3)c2Nc2ccc(O)cc2)N2C1=N[C@@H]1CCC[C@@H]12` 1.3 nM

Same question, `CN1C(=O)c2c(nn(Cc3ccc(-c4cccc(F)n4)cc3)c2Nc2ccccc2)N2C1=N[C@]1(O)CCC[C@H]21` this time 0.042 nM

Same question, `CN1C(=O)c2c(nn(Cc3ccc(-c4cccc(F)n4)cc3)c2Nc2ccc(O)cc2)N2C1=N[C@]1(O)CCC[C@H]21` this time 6.3 nM

---

IC50 values by entry
- target: hPDE7B (Homo sapiens, UniProt Q9NP56)
- Sequence (Q9NP56 whole entry): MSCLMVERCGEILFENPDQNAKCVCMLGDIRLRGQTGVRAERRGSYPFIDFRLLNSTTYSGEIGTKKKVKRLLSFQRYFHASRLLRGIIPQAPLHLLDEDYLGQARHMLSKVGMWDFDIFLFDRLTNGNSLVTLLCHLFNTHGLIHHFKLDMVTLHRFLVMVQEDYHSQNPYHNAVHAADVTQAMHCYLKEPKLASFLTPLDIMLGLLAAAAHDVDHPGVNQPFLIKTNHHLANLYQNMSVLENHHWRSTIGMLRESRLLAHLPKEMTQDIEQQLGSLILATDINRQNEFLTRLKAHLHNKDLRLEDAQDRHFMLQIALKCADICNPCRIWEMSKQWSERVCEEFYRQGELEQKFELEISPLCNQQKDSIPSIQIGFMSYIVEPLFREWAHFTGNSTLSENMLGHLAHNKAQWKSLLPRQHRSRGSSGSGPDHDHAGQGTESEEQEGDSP
- protocol: PDE selectivity assay, hPDE7B
- Format: biochemical
- settings: PDE Target hPDE7B
Report as a plain number; the unit nM is understood.

Examples with their reported IC50 follow.
CN1C(=O)c2c(nn(Cc3ccc(-c4cccc(F)n4)cc3)c2Nc2ccccc2)N2C1=N[C@]1(O)CCC[C@H]21
118
CN1C(=O)c2c(nn(Cc3ccc(-c4cccc(F)n4)cc3)c2Nc2ccc(O)cc2)N2C1=N[C@]1(O)CCC[C@H]21
1240

Next compound, IC50 to be filled in.
Requested field: IC50. Item: `CN1C(=O)c2c(nn(Cc3ccc(-c4cccc(F)n4)cc3)c2Nc2ccc(O)cc2)N2C1=N[C@@H]1CCC[C@@H]12` 6610

---

- target: hPDE2A (Homo sapiens)
- Sequence (O00408 whole entry): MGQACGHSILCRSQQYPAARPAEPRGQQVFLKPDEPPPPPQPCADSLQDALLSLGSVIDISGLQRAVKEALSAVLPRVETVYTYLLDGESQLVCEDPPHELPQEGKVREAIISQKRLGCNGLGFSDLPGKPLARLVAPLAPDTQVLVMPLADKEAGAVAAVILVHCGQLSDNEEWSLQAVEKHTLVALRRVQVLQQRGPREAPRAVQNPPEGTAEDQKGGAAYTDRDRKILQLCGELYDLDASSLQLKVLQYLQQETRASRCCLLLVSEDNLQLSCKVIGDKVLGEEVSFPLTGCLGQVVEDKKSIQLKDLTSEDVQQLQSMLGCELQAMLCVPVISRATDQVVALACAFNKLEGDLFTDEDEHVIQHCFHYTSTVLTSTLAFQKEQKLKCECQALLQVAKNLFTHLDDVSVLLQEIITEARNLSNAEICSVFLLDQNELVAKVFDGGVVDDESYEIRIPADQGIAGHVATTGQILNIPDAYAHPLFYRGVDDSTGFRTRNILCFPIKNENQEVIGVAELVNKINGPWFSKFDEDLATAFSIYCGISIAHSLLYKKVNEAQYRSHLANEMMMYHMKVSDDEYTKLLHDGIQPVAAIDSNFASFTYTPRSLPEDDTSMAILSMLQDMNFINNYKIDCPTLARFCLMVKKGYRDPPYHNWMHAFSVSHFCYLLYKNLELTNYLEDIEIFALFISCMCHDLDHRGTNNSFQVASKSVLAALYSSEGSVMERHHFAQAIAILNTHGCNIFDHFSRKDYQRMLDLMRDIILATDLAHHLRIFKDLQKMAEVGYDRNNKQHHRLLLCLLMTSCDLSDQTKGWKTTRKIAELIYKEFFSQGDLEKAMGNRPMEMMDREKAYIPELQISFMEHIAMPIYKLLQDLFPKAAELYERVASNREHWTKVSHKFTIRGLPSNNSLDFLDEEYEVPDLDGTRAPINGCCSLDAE
- protocol: PDE selectivity assay, hPDE2A
- Assay type: biochemical
- settings: PDE Target hPDE2A
measurement.kind: IC50

CN1C(=O)c2c(nn(Cc3ccc(-c4cccc(F)n4)cc3)c2Nc2ccccc2)N2C1=N[C@]1(O)CCC[C@H]21
~10000 nM
CN1C(=O)c2c(nn(Cc3ccc(-c4cccc(F)n4)cc3)c2Nc2ccc(O)cc2)N2C1=N[C@@H]1CCC[C@@H]12
> 100000 nM

Next compound, IC50 to be filled in.
Find the measured IC50: item `CN1C(=O)c2c(nn(Cc3ccc(-c4cccc(F)n4)cc3)c2Nc2ccc(O)cc2)N2C1=N[C@]1(O)CCC[C@H]21` , target or system hPDE2A (Homo sapiens). 73400 nM

---

IC50 values by entry
- target: hPDE10A (Homo sapiens, UniProt Q9Y233)
- Sequence (Q9Y233 whole entry): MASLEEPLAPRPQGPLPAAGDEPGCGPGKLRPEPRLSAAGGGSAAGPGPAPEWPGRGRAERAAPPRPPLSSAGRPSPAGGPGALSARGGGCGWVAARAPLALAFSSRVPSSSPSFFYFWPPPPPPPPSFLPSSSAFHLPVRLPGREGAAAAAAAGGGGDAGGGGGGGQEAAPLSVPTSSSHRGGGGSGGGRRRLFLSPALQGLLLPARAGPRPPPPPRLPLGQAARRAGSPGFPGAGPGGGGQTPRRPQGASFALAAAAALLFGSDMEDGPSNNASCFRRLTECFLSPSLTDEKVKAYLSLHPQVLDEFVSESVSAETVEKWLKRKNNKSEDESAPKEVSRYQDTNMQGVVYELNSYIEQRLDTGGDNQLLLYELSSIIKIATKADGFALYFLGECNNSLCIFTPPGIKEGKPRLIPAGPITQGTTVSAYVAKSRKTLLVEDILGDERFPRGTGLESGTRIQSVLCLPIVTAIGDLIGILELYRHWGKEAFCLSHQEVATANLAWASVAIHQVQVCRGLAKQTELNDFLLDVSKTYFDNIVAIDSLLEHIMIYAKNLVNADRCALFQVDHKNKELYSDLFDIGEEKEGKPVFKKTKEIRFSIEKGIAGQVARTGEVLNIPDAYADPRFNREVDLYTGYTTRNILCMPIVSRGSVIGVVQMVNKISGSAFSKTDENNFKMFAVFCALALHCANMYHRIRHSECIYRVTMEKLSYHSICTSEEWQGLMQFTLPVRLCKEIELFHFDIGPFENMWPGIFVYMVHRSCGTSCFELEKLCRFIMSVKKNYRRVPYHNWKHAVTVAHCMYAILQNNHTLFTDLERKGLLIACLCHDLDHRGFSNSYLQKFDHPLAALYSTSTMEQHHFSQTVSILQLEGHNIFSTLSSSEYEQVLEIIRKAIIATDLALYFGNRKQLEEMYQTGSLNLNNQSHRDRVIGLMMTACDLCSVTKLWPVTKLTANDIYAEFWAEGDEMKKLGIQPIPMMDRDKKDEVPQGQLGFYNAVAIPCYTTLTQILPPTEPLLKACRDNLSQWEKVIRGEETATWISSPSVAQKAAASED
- protocol: PDE selectivity assay, hPDE10A
- Format: biochemical
- settings: PDE Target hPDE10A

Requested field: IC50. Item: `CN1C(=O)c2c(nn(Cc3ccc(-c4cccc(F)n4)cc3)c2Nc2ccccc2)N2C1=N[C@]1(O)CCC[C@H]21` > 10000 nM

Same question, `CN1C(=O)c2c(nn(Cc3ccc(-c4cccc(F)n4)cc3)c2Nc2ccc(O)cc2)N2C1=N[C@]1(O)CCC[C@H]21` this time 67400 nM

Same question, `CN1C(=O)c2c(nn(Cc3ccc(-c4cccc(F)n4)cc3)c2Nc2ccc(O)cc2)N2C1=N[C@@H]1CCC[C@@H]12` this time > 100000 nM

---

IC50 values by entry
- target: hPDE3B (Homo sapiens)
- protocol: PDE selectivity assay, hPDE3B
- Type: biochemical
- settings: PDE Target hPDE3B
Report as a plain number; the unit nM is understood.

CN1C(=O)c2c(nn(Cc3ccc(-c4cccc(F)n4)cc3)c2Nc2ccc(O)cc2)N2C1=N[C@]1(O)CCC[C@H]21
20900

Next molecule, IC50 to be filled in.
Requested field: IC50. Item: `CN1C(=O)c2c(nn(Cc3ccc(-c4cccc(F)n4)cc3)c2Nc2ccc(O)cc2)N2C1=N[C@@H]1CCC[C@@H]12` 49700

---

IC50 values by entry
- target: PDE1B (Homo sapiens)
- Construct: recombinant full length human PDEl A and PDE1B; made in house; host or cells: HEK or SF9 cells
- protocol: IMAP phosphodiesterase assay, PDE1B
- Type: biochemical
- settings: PDE Target PDE1B
Report as a plain number; the unit nM is understood.

Examples with their reported IC50 follow.
CN1C(=O)c2c(nn(Cc3ccc(-c4cccc(F)n4)cc3)c2Nc2ccc(O)cc2)N2C1=N[C@@H]1CCC[C@@H]12
29
CN1C(=O)c2c(nn(Cc3ccc(-c4cccc(F)n4)cc3)c2Nc2ccccc2)N2C1=N[C@]1(O)CCC[C@H]21
0.015

Next compound, IC50 to be filled in.
Requested field: IC50. Item: `CN1C(=O)c2c(nn(Cc3ccc(-c4cccc(F)n4)cc3)c2Nc2ccc(O)cc2)N2C1=N[C@]1(O)CCC[C@H]21` 1.4

---

- target: hPDE8A (Homo sapiens, UniProt O60658)
- Sequence (O60658 whole entry): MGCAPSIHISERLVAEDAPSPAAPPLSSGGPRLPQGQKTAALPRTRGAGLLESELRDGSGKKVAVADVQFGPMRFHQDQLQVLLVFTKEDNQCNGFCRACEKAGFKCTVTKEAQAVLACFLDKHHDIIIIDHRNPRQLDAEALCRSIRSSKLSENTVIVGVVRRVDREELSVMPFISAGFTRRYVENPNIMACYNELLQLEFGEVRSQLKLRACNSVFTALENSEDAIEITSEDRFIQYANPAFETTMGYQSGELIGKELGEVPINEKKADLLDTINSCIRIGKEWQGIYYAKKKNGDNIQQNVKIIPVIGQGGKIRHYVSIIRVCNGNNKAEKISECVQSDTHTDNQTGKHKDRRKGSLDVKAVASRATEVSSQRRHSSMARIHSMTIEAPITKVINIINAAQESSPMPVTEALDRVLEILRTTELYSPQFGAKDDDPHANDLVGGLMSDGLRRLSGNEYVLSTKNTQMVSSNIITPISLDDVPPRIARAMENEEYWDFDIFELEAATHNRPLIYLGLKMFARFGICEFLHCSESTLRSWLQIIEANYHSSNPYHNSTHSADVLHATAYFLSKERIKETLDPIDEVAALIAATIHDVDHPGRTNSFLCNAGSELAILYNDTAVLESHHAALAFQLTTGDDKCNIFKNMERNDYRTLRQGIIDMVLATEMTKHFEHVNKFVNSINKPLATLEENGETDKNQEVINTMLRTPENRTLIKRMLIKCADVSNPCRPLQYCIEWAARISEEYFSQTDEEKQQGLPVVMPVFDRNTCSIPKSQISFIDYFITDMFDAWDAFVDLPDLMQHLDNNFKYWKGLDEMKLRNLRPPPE
- protocol: PDE selectivity assay, hPDE8A
- Assay type: biochemical
- settings: PDE Target hPDE8A
IC50 values by entry

CN1C(=O)c2c(nn(Cc3ccc(-c4cccc(F)n4)cc3)c2Nc2ccc(O)cc2)N2C1=N[C@]1(O)CCC[C@H]21
3420 nM

Requested field: IC50. Item: `CN1C(=O)c2c(nn(Cc3ccc(-c4cccc(F)n4)cc3)c2Nc2ccc(O)cc2)N2C1=N[C@@H]1CCC[C@@H]12` 4170 nM

Same question, `CN1C(=O)c2c(nn(Cc3ccc(-c4cccc(F)n4)cc3)c2Nc2ccccc2)N2C1=N[C@]1(O)CCC[C@H]21` this time 418 nM

---

- target: hPDE4A1A (Homo sapiens, UniProt P27815)
- Sequence (P27815 1-647 isoform P27815-4): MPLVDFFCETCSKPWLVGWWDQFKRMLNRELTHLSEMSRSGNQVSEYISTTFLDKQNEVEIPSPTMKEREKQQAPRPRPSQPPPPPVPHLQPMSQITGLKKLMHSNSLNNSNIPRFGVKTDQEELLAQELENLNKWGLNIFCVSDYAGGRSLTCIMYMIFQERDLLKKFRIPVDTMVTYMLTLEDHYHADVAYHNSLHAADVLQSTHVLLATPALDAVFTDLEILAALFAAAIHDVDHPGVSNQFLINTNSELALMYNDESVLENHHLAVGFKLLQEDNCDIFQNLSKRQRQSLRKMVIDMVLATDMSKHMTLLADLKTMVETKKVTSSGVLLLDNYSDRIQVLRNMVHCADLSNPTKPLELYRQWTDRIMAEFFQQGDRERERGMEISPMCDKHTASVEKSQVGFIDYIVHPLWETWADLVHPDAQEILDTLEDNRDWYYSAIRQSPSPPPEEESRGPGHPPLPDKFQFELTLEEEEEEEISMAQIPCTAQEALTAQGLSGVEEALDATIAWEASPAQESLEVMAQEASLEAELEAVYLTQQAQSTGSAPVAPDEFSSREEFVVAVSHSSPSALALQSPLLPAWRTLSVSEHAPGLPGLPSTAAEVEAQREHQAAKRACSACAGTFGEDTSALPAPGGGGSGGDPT
- protocol: PDE selectivity assay, hPDE4A1A
- Format: biochemical
- settings: PDE Target hPDE4A1A
measurement.kind: IC50 (nM)
Report as a plain number; the unit nM is understood.

Examples with their reported IC50 follow.
CN1C(=O)c2c(nn(Cc3ccc(-c4cccc(F)n4)cc3)c2Nc2ccc(O)cc2)N2C1=N[C@]1(O)CCC[C@H]21 [Compound 3]
840
CN1C(=O)c2c(nn(Cc3ccc(-c4cccc(F)n4)cc3)c2Nc2ccc(O)cc2)N2C1=N[C@@H]1CCC[C@@H]12 [Compound 1]
3660

Next molecule, IC50 to be filled in.
Find the measured IC50: item CN1C(=O)c2c(nn(Cc3ccc(-c4cccc(F)n4)cc3)c2Nc2ccccc2)N2C1=N[C@]1(O)CCC[C@H]21 [Compound 2] , target or system hPDE4A1A (Homo sapiens, UniProt P27815). 22
